# System: Staphylococcus aureus
# Test protocol: Effective dose required to inhibit Staphylococcus aureus intraperitoneal (IP) infection model
# Format: functional
Property measured: ED50 (mg/kg)

[[record]]
molecule = "CC[C@H]1OC(=O)[C@H](C)[C@H]2OC3(CCN(C(=O)c4ccccn4)CC3)O[C@](C)(C[C@@H](C)CN[C@H](C)[C@@H](O)[C@]1(C)O)[C@H](O[C@@H]1O[C@H](C)C[C@H](N(C)C)[C@H]1O)[C@H]2C"
bound_type = "="
quantitative_readout = 7.6

[[record]]
molecule = "CC[C@H]1OC(=O)[C@H](C)[C@H]2OC3(CCN(CCc4ccc(NC(C)=O)cc4)CC3)O[C@](C)(C[C@@H](C)CN(C)[C@H](C)[C@@H](O)[C@]1(C)O)[C@H](O[C@@H]1O[C@H](C)C[C@H](N(C)C)[C@H]1O)[C@H]2C"
bound_type = "="
quantitative_readout = 9.6

[[record]]
molecule = "CC[C@H]1OC(=O)[C@H](C)[C@H]2OC3(CCN(Cc4cccnc4)CC3)O[C@](C)(C[C@@H](C)CN[C@H](C)[C@@H](O)[C@]1(C)O)[C@H](O[C@@H]1O[C@H](C)C[C@H](N(C)C)[C@H]1O)[C@H]2C"
bound_type = "<"
quantitative_readout = 5

[[record]]
molecule = "CC[C@H]1OC(=O)[C@H](C)[C@H]2OC3(CCN(C(=O)c4cncc(Cl)c4Cl)CC3)O[C@](C)(C[C@@H](C)CN[C@H](C)[C@@H](O)[C@]1(C)O)[C@H](O[C@@H]1O[C@H](C)C[C@H](N(C)C)[C@H]1O)[C@H]2C"
bound_type = ">"
quantitative_readout = 20

